Assay: in vitro
Format: in vitro ADME, human
Details: after 1 h incubation, all concentrations studied (50, 100, 200, 500 μM), 25% (v/v) human serum, 37 °C, RP-HPLC; read-out: intact peptide remaining
Description: vCPP2319 at final concentrations of 50, 100, 200, and 500 μM was incubated with 25% (v/v in H2O) human serum (Sigma-Aldrich) at 37 °C, with gentle swirling. […] The supernatants were analyzed by reversed-phase HPLC (RP-HPLC) and LC–mass spectrometry (LC-MS). The percentage of intact peptide was calculated by RP-HPLC peak integration, expressed as percent of the amount at t0, and data were fitted to a monoexponential decay model using GraphPad Prism 7.0 to estimate the peptide half-life (t1/2). […]
Where no end group is shown, it is not given here.
VALUE TYPE: remaining at 1 h

Input: State the recorded remaining at 1 h for this entry: WRRRYRRWRRRRRWRRRPRR-NH2 [vCPP2319]
Output: > 60%
